Target: Adenylate cyclase type 1 (Homo sapiens, UniProt Q08828)
Test: Maximum stimulation activity measured with 100 uM forskolin mediated by adenylate cyclase 1
Type: functional
Sequence (Q08828 whole entry, looked up): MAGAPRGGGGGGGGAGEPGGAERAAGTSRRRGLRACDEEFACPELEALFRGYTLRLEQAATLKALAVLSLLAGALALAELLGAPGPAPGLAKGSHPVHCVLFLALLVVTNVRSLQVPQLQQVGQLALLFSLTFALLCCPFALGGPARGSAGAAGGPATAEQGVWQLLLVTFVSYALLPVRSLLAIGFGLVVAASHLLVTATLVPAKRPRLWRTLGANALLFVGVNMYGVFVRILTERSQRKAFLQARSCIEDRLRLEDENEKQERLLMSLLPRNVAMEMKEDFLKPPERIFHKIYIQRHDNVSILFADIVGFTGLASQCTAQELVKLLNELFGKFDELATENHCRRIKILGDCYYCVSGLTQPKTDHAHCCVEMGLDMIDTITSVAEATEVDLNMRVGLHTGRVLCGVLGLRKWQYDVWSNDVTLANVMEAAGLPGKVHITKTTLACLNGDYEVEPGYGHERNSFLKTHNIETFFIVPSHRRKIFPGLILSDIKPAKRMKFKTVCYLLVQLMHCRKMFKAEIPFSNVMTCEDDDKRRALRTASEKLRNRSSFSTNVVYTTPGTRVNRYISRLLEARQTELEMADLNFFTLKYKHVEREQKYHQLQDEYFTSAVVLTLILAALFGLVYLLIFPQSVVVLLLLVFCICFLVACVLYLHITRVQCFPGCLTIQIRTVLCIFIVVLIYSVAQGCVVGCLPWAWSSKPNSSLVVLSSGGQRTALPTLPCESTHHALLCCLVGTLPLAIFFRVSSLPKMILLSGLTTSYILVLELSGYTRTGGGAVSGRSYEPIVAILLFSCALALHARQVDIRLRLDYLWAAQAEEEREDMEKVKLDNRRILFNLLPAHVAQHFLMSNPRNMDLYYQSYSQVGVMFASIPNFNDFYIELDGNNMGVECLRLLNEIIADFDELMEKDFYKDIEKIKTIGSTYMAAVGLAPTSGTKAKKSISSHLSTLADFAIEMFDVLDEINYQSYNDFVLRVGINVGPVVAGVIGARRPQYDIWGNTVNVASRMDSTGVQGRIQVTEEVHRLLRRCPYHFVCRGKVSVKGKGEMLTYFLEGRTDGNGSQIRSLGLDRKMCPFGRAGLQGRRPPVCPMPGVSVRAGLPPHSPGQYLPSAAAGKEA
For each record, check the reported Activity: if it is below 80% write Fulfilled, else write Not fulfilled.

compound-structure	class-label
C=C[C@@]1(C)CC(=O)[C@]2(O)[C@@]3(C)[C@@H](O)CCC(C)(C)[C@@H]3[C@H](OC(=O)NCCOC)[C@H](OC(C)=O)[C@@]2(C)O1	Fulfilled
C=C[C@@]1(C)CC(=O)[C@]2(O)[C@@]3(C)[C@@H](O)CCC(C)(C)[C@@H]3[C@H](O)[C@H](OC(=O)NCCC)[C@@]2(C)O1	Not fulfilled
C=C[C@@]1(C)CC(=O)[C@]2(O)[C@@]3(C)[C@@H](O)CCC(C)(C)[C@@H]3[C@H](OC(=O)NCCN)[C@H](OC(C)=O)[C@@]2(C)O1	Not fulfilled
C=C[C@@]1(C)CC(=O)[C@]2(O)[C@@]3(C)[C@@H](O)CCC(C)(C)[C@@H]3[C@H](OC(=O)NCCc3ccccc3)[C@H](O)[C@@]2(C)O1	Fulfilled
C=C[C@@]1(C)CC(=O)[C@]2(O)[C@@]3(C)[C@@H](O)CCC(C)(C)[C@@H]3[C@H](OC(=O)NCCN3CCCCC3)[C@H](OC(C)=O)[C@@]2(C)O1	Not fulfilled

For "C=C[C@@]1(C)CC(=O)[C@]2(O)[C@@]3(C)[C@@H](O)CCC(C)(C)[C@@H]3[C@H](OC(=O)NCCN(C)C)[C@H](OC(C)=O)[C@@]2(C)O1" , is the recorded Activity below the cut-off of 80%?
Not fulfilled

For "C=C[C@@]1(C)CC(=O)[C@]2(O)[C@@]3(C)[C@@H](O)CCC(C)(C)[C@@H]3[C@H](O)[C@H](OC(=O)NCC(C)C)[C@@]2(C)O1" , is the recorded Activity below the cut-off of 80%?
Fulfilled

For "C=C[C@@]1(C)CC(=O)[C@]2(O)[C@@]3(C)[C@@H](O)CCC(C)(C)[C@@H]3[C@H](OC(=O)NCCc3ccc(N)cc3)[C@H](OC(C)=O)[C@@]2(C)O1" , is the recorded Activity below the cut-off of 80%?
Fulfilled

For "C=C[C@@]1(C)CC(=O)[C@]2(O)[C@@]3(C)[C@@H](O)CCC(C)(C)[C@@H]3[C@H](O)[C@H](OC(=O)NCCc3ccccn3)[C@@]2(C)O1" , is the recorded Activity below the cut-off of 80%?
Not fulfilled

For "C=C[C@@]1(C)CC(=O)[C@]2(O)[C@@]3(C)[C@@H](O)CCC(C)(C)[C@@H]3[C@H](O)[C@H](OC(=O)NCCN)[C@@]2(C)O1" , is the recorded Activity below the cut-off of 80%?
Not fulfilled

For "C=C[C@@]1(C)CC(=O)[C@]2(O)[C@@]3(C)[C@@H](O)CCC(C)(C)[C@@H]3[C@H](O)[C@H](OC(=O)NCCc3ccc(O)cc3)[C@@]2(C)O1" , is the recorded Activity below the cut-off of 80%?
Fulfilled

For "C=C[C@@]1(C)CC(=O)[C@]2(O)[C@@]3(C)[C@@H](O)CCC(C)(C)[C@@H]3[C@H](OC(=O)NCCC(=O)OCC)[C@H](OC(C)=O)[C@@]2(C)O1" , is the recorded Activity below the cut-off of 80%?
Not fulfilled

For "C=C[C@@]1(C)CC(=O)[C@]2(O)[C@@]3(C)[C@@H](O)CCC(C)(C)[C@@H]3[C@H](OC(=O)NCC3CCCCC3)[C@H](OC(C)=O)[C@@]2(C)O1" , is the recorded Activity below the cut-off of 80%?
Fulfilled

For "C=CCNC(=O)O[C@H]1[C@@H](O)[C@H]2C(C)(C)CC[C@H](O)[C@]2(C)[C@@]2(O)C(=O)C[C@](C)(C=C)O[C@]12C" , is the recorded Activity below the cut-off of 80%?
Not fulfilled

For "C=CCNC(=O)O[C@H]1[C@H]2C(C)(C)CC[C@H](O)[C@]2(C)[C@@]2(O)C(=O)C[C@](C)(C=C)O[C@]2(C)[C@H]1O" , is the recorded Activity below the cut-off of 80%?
Not fulfilled

For "C=C[C@@]1(C)CC(=O)[C@]2(O)[C@@]3(C)[C@@H](O)CCC(C)(C)[C@@H]3[C@H](O)[C@H](OC(=O)NCC3CCCCC3)[C@@]2(C)O1" , is the recorded Activity below the cut-off of 80%?
Fulfilled

====

Molecular target: Adenylate cyclase type 1 (Homo sapiens)
Assay: Conversion of [32P] ATP to [32P]-cyclic AMP mediated by adenylate cyclase 1
Type: functional
Settings: read-out: EC50
Sequence (Q08828 whole entry): as the sequence (Q08828 whole entry, looked up) above
quantity-measured: EC50 (nM)
Express the result in nM but write the number alone.

Below, each entry is followed by its recorded EC50 result.
compound-structure	unit-abbreviation	experimental-result
C=C[C@@]1(C)CC(=O)[C@]2(O)[C@@]3(C)[C@@H](O)CCC(C)(C)[C@@H]3[C@H](O)[C@H](OC(=O)NCCC(=O)OCC)[C@@]2(C)O1	nM	3600
C=C[C@@]1(C)CC(=O)[C@]2(O)[C@@]3(C)[C@@H](O)CCC(C)(C)[C@@H]3[C@H](OC(=O)NCCC)[C@H](O)[C@@]2(C)O1	nM	4900
C=C[C@@]1(C)CC(=O)[C@]2(O)[C@@]3(C)[C@@H](O)CCC(C)(C)[C@@H]3[C@H](OC(=O)NCCc3ccccn3)[C@H](OC(C)=O)[C@@]2(C)O1	nM	600
C=C[C@@]1(C)CC(=O)[C@]2(O)[C@@]3(C)[C@@H](O)CCC(C)(C)[C@@H]3[C@H](O)[C@H](OC(=O)NCCc3ccccc3)[C@@]2(C)O1	nM	2100

Moving on to the next compound.
Item "C=C[C@@]1(C)CC(=O)[C@]2(O)[C@@]3(C)[C@@H](O)CCC(C)(C)[C@@H]3[C@H](OC(=O)NCCOC)[C@H](OC(C)=O)[C@@]2(C)O1" has what recorded EC50?
700

====

Target: Adenylate cyclase type 1 (Homo sapiens, UniProt Q08828)
Assay: Inhibition of [125 I]6-IHPP-forskolin binding to adenylate cyclase 1
# IC50 per record follows
Express the result in nM but write the number alone.

Below, each entry is followed by its recorded IC50 result.
compound-structure	tested-target	unit-abbreviation	IC50
C=C[C@@]1(C)CC(=O)[C@]2(O)[C@@]3(C)[C@@H](O)CCC(C)(C)[C@@H]3[C@H](OC(=O)NCCc3ccc(N)cc3)[C@H](OC(C)=O)[C@@]2(C)O1	Adenylate cyclase type 1 (Homo sapiens, UniProt Q08828)	nM	39
C=C[C@@]1(C)CC(=O)[C@]2(O)[C@@]3(C)[C@@H](O)CCC(C)(C)[C@@H]3[C@H](O)[C@H](OC(=O)NCCc3ccccc3)[C@@]2(C)O1	Adenylate cyclase type 1 (Homo sapiens, UniProt Q08828)	nM	251
C=C[C@@]1(C)CC(=O)[C@]2(O)[C@@]3(C)[C@@H](O)CCC(C)(C)[C@@H]3[C@H](O)[C@H](OC(=O)NCCc3ccc(O)cc3)[C@@]2(C)O1	Adenylate cyclase type 1 (Homo sapiens, UniProt Q08828)	nM	95
C=C[C@@]1(C)CC(=O)[C@]2(O)[C@@]3(C)[C@@H](O)CCC(C)(C)[C@@H]3[C@H](OC(=O)NCCC(=O)OCC)[C@H](O)[C@@]2(C)O1	Adenylate cyclase type 1 (Homo sapiens, UniProt Q08828)	nM	171
C=C[C@@]1(C)CC(=O)[C@]2(O)[C@@]3(C)[C@@H](O)CCC(C)(C)[C@@H]3[C@H](O)[C@H](OC(=O)NCCN3CCCCC3)[C@@]2(C)O1	Adenylate cyclase type 1 (Homo sapiens, UniProt Q08828)	nM	184

Item "C=C[C@@]1(C)CC(=O)[C@]2(O)[C@@]3(C)[C@@H](O)CCC(C)(C)[C@@H]3[C@H](O)[C@H](OC(=O)NCCN(C)C)[C@@]2(C)O1" has what recorded IC50?
228

====

Molecular target: Adenylate cyclase type 1 (Homo sapiens, UniProt Q08828)
Test: Conversion of [32P] ATP to [32P]-cyclic AMP mediated by adenylate cyclase 1
Assay type: functional
Conditions: read-out: EC50
quantity-measured: EC50 (nM)
Express the result in nM but write the number alone.

compound-structure	EC50 [nM]
C=C[C@@]1(C)CC(=O)[C@]2(O)[C@@]3(C)[C@@H](O)CCC(C)(C)[C@@H]3[C@H](OC(=O)NCC(C)C)[C@H](OC(C)=O)[C@@]2(C)O1	4100
C=C[C@@]1(C)CC(=O)[C@]2(O)[C@@]3(C)[C@@H](O)CCC(C)(C)[C@@H]3[C@H](OC(=O)NCCOC)[C@H](O)[C@@]2(C)O1	3100
C=C[C@@]1(C)CC(=O)[C@]2(O)[C@@]3(C)[C@@H](O)CCC(C)(C)[C@@H]3[C@H](O)[C@H](OC(=O)NCCOC)[C@@]2(C)O1	1600
C=C[C@@]1(C)CC(=O)[C@]2(O)[C@@]3(C)[C@@H](O)CCC(C)(C)[C@@H]3[C@H](OC(=O)NCC3CCCCC3)[C@H](OC(C)=O)[C@@]2(C)O1	6600
C=C[C@@]1(C)CC(=O)[C@]2(O)[C@@]3(C)[C@@H](O)CCC(C)(C)[C@@H]3[C@H](O)[C@H](OC(=O)NCCN)[C@@]2(C)O1	700

Item "C=CCNC(=O)O[C@H]1[C@@H](O)[C@H]2C(C)(C)CC[C@H](O)[C@]2(C)[C@@]2(O)C(=O)C[C@](C)(C=C)O[C@]12C" has what recorded EC50?
2400
